system: DIO2 (gene 1734); test: CCTE_GLTED_hDIO2: CCTE's human Deiodinase 2 (DIO2) Inhibition Assay, Great Lakes Toxicology and Ecology Division (GLTED) Lab (AID 2284050)
The source made the active and inactive calls. Rule for the calls: active = hit-call score of the fitted dose curve at least 0.9, where 1 is the maximum; inconclusive = response in the unintended direction; inactive = score below 0.9.
Please reply with one of these outcomes: True = active, False = inactive

CCCCCCCc1ccc(O)cc1: True
CCNc1nc(Cl)nc(NC(C)(C)C)n1: False
C=CC(=O)OCC(F)(F)C(F)F: True
COC(=O)C(F)(F)C(F)(F)OC(F)(C(F)(F)F)C(F)(F)OC(F)=C(F)F (stereo not given): True

Here's the next entry for you.
### Prompt Write down the call the test reported for this compound. Item: CC1(C)CN=C(NN=C(/C=C/c2ccc(C(F)(F)F)cc2)/C=C/c2ccc(C(F)(F)F)cc2)NC1
### Response True
